- EXPERIMENTAL_SYSTEM: T1, monkey GPC3 on HEK293T-monkey GPC3 cells (monkey)
- T1 construct: whole, on cells
- METHOD_SUMMARY: FACS on HEK293T-monkey GPC3 cells;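 also: flow cytometry binding of test antibodies to the cells, read as mean fluorescence intensity, with half-maximal concentration taken from fitted curves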
Consider the following binders and their measured Max MFI readings.
Express the result in MFI but write the number alone.

- BINDER: "F1.110.24 (antibody, human IgG1, kappa, V domains shown, Human-murine chimeric antibody) VH: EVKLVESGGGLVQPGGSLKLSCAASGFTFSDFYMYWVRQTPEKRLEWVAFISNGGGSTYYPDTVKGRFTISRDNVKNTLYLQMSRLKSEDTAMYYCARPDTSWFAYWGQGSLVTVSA VL: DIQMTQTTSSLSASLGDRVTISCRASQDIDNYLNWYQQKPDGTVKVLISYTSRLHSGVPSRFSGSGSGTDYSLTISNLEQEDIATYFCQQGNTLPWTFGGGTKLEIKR"
  Max MFI [MFI]: 5560

Please find the next binder below.
Quick check: Max MFI of F1.57.21 (antibody, human IgG1, kappa, V domains shown, Human-murine chimeric antibody) VH: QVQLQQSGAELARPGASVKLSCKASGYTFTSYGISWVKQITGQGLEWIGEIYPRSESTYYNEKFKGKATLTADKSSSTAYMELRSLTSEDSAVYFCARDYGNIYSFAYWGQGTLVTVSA VL: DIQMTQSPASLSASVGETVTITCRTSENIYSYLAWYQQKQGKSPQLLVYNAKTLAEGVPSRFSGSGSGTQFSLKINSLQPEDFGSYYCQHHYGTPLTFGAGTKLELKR ?
5380
